# experiment summary: Toxicity liver stage against HepG2, at 10uM
# Format: cell-based
# Set-up: test concentration 10 uM, cell line HepG2-A16-CD81EGFP
# condition label: human, HepG2-A16-CD81EGFP cells; read-out: INHIBITION
Recorded cytotoxicity at 10 µM values for a group of compounds are listed next.

[
  {
    "compound": "O=C1CC(NCc2ccc(OC(F)F)cc2)CN1Cc1cccc(F)c1 (stereo unspecified)",
    "measurement units": "%",
    "cytotoxicity at 10 µM": -5.29
  },
  {
    "compound": "CCOCC(=O)N1CC[C@H]2OCC[C@@H](c3nnc(C)o3)[C@H]2C1",
    "measurement units": "%",
    "cytotoxicity at 10 µM": 12
  },
  {
    "compound": "Cc1ccc(S(=O)(=O)N2CCN(CCCn3ccnc3)CC2)cc1",
    "measurement units": "%",
    "cytotoxicity at 10 µM": -13.5
  },
  {
    "compound": "COCCCC1(CO)CCCN(CCc2ccccc2)C1 (stereo unspecified)",
    "measurement units": "%",
    "cytotoxicity at 10 µM": -9.99
  },
  {
    "compound": "CN(Cc1ccco1)[C@@H]1CN(Cc2ccccn2)C[C@@H]2CCCO[C@@H]21",
    "measurement units": "%",
    "cytotoxicity at 10 µM": 0.34
  },
  {
    "compound": "CCc1nc(C)c(C(C)N(C)CCc2ccccn2)s1 (stereo unspecified)",
    "measurement units": "%",
    "cytotoxicity at 10 µM": -6.51
  },
  {
    "compound": "O=C(NCCCn1cccn1)N1CCCC1c1cccs1 (stereo unspecified)",
    "measurement units": "%",
    "cytotoxicity at 10 µM": -2.39
  },
  {
    "compound": "CCN(CC1CN(Cc2nccn2CC)CCO1)c1cccnn1 (stereo unspecified)",
    "measurement units": "%",
    "cytotoxicity at 10 µM": -0.31
  },
  {
    "compound": "c1ncc(Nc2nccc(C3CCCCN3CC3CCCCC3)n2)cn1 (stereo unspecified)",
    "measurement units": "%",
    "cytotoxicity at 10 µM": 3.32
  },
  {
    "compound": "O=C(CNC(=O)c1cc(Cl)ccn1)Nc1nccs1",
    "measurement units": "%",
    "cytotoxicity at 10 µM": -1.87
  },
  {
    "compound": "Cc1cc(NC(C)C(=O)NCC(F)(F)F)nc(-c2ccncc2)n1 (stereo unspecified)",
    "measurement units": "%",
    "cytotoxicity at 10 µM": 4.96
  }
]

* * *

# experiment summary: Toxicity liver stage against HepG2, at 10uM
# Format: cell-based
# Set-up: test concentration 10 uM, cell line HepG2-A16-CD81EGFP
# condition label: human, HepG2-A16-CD81EGFP cells; read-out: INHIBITION
reported property: cytotoxicity at 10 µM (%)

[
  {
    "molecule": "Cc1noc(-c2ccnc(N3CCN(C4CCOCC4)CC3)c2)n1",
    "reported property": "cytotoxicity at 10 µM",
    "measurement units": "%",
    "value reported": 1.83
  },
  {
    "molecule": "O=S(=O)(c1cccs1)N1CCN(Cc2nc(-c3ccco3)cs2)CC1",
    "reported property": "cytotoxicity at 10 µM",
    "measurement units": "%",
    "value reported": 21.2
  },
  {
    "molecule": "CC1CCC(NC(=O)c2nn(C)cc2I)CC1 (stereo unspecified)",
    "reported property": "cytotoxicity at 10 µM",
    "measurement units": "%",
    "value reported": 11.8
  },
  {
    "molecule": "COCCN1C[C@@H]2[C@@H](OC)CCN(Cc3ccc(C)o3)[C@@H]2C1",
    "reported property": "cytotoxicity at 10 µM",
    "measurement units": "%",
    "value reported": -4.42
  },
  {
    "molecule": "Cc1ccc(C(=O)NCCCN(C)S(C)(=O)=O)c(=O)[nH]1",
    "reported property": "cytotoxicity at 10 µM",
    "measurement units": "%",
    "value reported": -5.89
  },
  {
    "molecule": "COC(=O)[C@@H]1CN(C(=O)Nc2ccccc2)CCN1C(C)=O",
    "reported property": "cytotoxicity at 10 µM",
    "measurement units": "%",
    "value reported": 4.23
  },
  {
    "molecule": "CSc1ccc(C(C(=O)O)N2CCC(C(=O)N3CCCC3)CC2)cc1 (stereo unspecified)",
    "reported property": "cytotoxicity at 10 µM",
    "measurement units": "%",
    "value reported": -3.45
  },
  {
    "molecule": "O=C(c1ccsc1)N1C[C@@H]2C[C@@H](c3nnc(C4CC4)o3)O[C@@H]2C1",
    "reported property": "cytotoxicity at 10 µM",
    "measurement units": "%",
    "value reported": -6.15
  },
  {
    "molecule": "Cc1noc(C2CN(CC(=O)NCC3CCCO3)C2)n1 (stereo unspecified)",
    "reported property": "cytotoxicity at 10 µM",
    "measurement units": "%",
    "value reported": -2.56
  },
  {
    "molecule": "Cc1ccc(CC(=O)N2CCCC(n3ccnc3C(C)C)C2)cn1 (stereo unspecified)",
    "reported property": "cytotoxicity at 10 µM",
    "measurement units": "%",
    "value reported": -5.11
  },
  {
    "molecule": "CNc1ncc(C(=O)N2CC[C@@](O)(C3CCOCC3)[C@H](C)C2)cn1",
    "reported property": "cytotoxicity at 10 µM",
    "measurement units": "%",
    "value reported": 4.56
  }
]

* * *

# experiment summary: Toxicity liver stage against HepG2, at 10uM
# Format: cell-based
# Parameters: test concentration 10 uM, cell line HepG2-A16-CD81EGFP
# condition label: human, HepG2-A16-CD81EGFP cells; read-out: INHIBITION
reported property: cytotoxicity at 10 µM (%)

[
  {
    "molecule": "Cc1cc(C(=O)N2C[C@@H]3CC[C@H]2CN(C(=O)c2ccncc2)C3)cs1",
    "value reported": -2.56
  },
  {
    "molecule": "CCC(Nc1nnnn1-c1ccccc1)C(=O)NCc1cccs1 (configuration not stated)",
    "value reported": -1.12
  },
  {
    "molecule": "c1cnc2nc(C3CCNCC3)[nH]c2c1",
    "value reported": 9.57
  },
  {
    "molecule": "CN(Cc1ccncc1)C(=O)NCc1nnc2n1CCCCC2",
    "value reported": -26
  },
  {
    "molecule": "O=C(Nc1ccc(-n2cncn2)nc1)N(CC1CCOC1)C1CC1 (configuration not stated)",
    "value reported": -9.2
  },
  {
    "molecule": "CN(C)c1nccc(C2CCN(c3ncccn3)CC2)n1",
    "value reported": 0.59
  },
  {
    "molecule": "CCC(CNc1ncnc2oc(C)nc12)Cc1ccccc1 (configuration not stated)",
    "value reported": 1.23
  },
  {
    "molecule": "CCN(Cc1ccncc1)C(=O)C1COc2c(cccc2OC)C1 (configuration not stated)",
    "value reported": 3.4
  },
  {
    "molecule": "COc1c(C2CCCN2C(=O)c2csc(C(C)C)n2)c(C)nn1C (configuration not stated)",
    "value reported": -8.26
  },
  {
    "molecule": "Cc1ccc(C(=O)NC2CCN(Cc3nc(C(C)C)no3)CC2)s1",
    "value reported": 3.82
  },
  {
    "molecule": "Cc1ccoc1C(=O)N1CC[C@H]2C[C@H](c3nnc(C4CC4)o3)O[C@@H]2C1",
    "value reported": -105
  },
  {
    "molecule": "COCCN(Cc1cccs1)C(=O)C1CCCN(C(N)=O)C1 (configuration not stated)",
    "value reported": 6.4
  },
  {
    "molecule": "CCN(CC)C(=O)c1cc(-c2cccc(Cl)c2)no1",
    "value reported": -8.79
  },
  {
    "molecule": "CCCNC(=O)c1ccc(S(=O)(=O)NCC2(COC)CCCC2)cc1",
    "value reported": -31.2
  },
  {
    "molecule": "CNC(=O)C(NC(C)=O)c1ccc(F)c(F)c1 (configuration not stated)",
    "value reported": -6.1
  },
  {
    "molecule": "CCC(C)NC(=O)CS(=O)(=O)Cc1ccccc1Cl (configuration not stated)",
    "value reported": 3.79
  },
  {
    "molecule": "Cc1nc(C)n(C2CCCN(C(=O)CCCc3ccccn3)C2)n1 (configuration not stated)",
    "value reported": -0.586
  },
  {
    "molecule": "O=C1CC(c2ccc(O)cc2)c2c(c(C(=O)O)cn2-c2ccccc2)N1 (configuration not stated)",
    "value reported": -4.99
  },
  {
    "molecule": "O=C(NCc1nncn1C1CCCCC1)C1COc2ccccc2O1 (configuration not stated)",
    "value reported": 2.83
  },
  {
    "molecule": "CCN(Cc1ccc2c(c1)OCCO2)C(=O)NCc1nncn1CC",
    "value reported": -4.35
  },
  {
    "molecule": "CNC(=O)c1cccc(C2CNCCN2C(=O)c2ccn(C)n2)c1 (configuration not stated)",
    "value reported": -4.22
  },
  {
    "molecule": "CC(C)c1nc(C2CCCN(C(=O)CCn3ccnc3)C2)no1 (configuration not stated)",
    "value reported": -10.8
  },
  {
    "molecule": "Cc1cccc(-c2nc(CNC3CCc4nc(C)nn4C3)no2)c1 (configuration not stated)",
    "value reported": -4.3
  },
  {
    "molecule": "Cc1cc2n(n1)CC(CNC1CCN(Cc3ccncc3)CC1)CN2 (configuration not stated)",
    "value reported": 1.78
  },
  {
    "molecule": "Cn1cccc1C(=O)N1CC[C@H]2[C@H]1CCN2CC1CCOCC1",
    "value reported": -4.81
  },
  {
    "molecule": "CCc1nc2c(N3CCC4(CC3)CNC(=O)C4)ncnc2o1",
    "value reported": -2
  },
  {
    "molecule": "O=C(Nc1ccc(F)cc1)N1C[C@@H]2C[C@H](C(=O)N3CCOCC3)[C@H](C1)O2",
    "value reported": 3.41
  },
  {
    "molecule": "CC(C)[C@H]1CN(C(=O)CC2CCC2)C[C@@H]1N(C)C",
    "value reported": 8.91
  },
  {
    "molecule": "COc1ccccc1C(=O)N1Cc2cc(C)ccc2OCC1CN(C)C (configuration not stated)",
    "value reported": 5.2
  },
  {
    "molecule": "CC(C)NC(=O)NCCCc1cccc(F)c1",
    "value reported": -0.0328
  },
  {
    "molecule": "CCC(C(=O)NCCc1coc(-c2ccc(C)cc2)n1)N(C)C (configuration not stated)",
    "value reported": -1.13
  },
  {
    "molecule": "CC(C)CNC(=O)CN1C=Nc2ccccc2S1(=O)=O",
    "value reported": -2.09
  },
  {
    "molecule": "N#CC(NC(=O)CS(=O)(=O)C1CCCC1)c1ccc(F)cc1F (configuration not stated)",
    "value reported": 3.56
  },
  {
    "molecule": "COCC1CN(CC2CCOCC2)Cc2cn(CC3CCCC3)nc21 (configuration not stated)",
    "value reported": 5.19
  },
  {
    "molecule": "COc1ccc(-c2noc(Cn3cnc(C)c3)n2)c(OC)c1OC",
    "value reported": -13.2
  },
  {
    "molecule": "NC(=O)c1ccc(S(=O)(=O)NC(=O)COc2ccc3c(c2)CCC3)cc1",
    "value reported": -2.27
  },
  {
    "molecule": "Cc1csc(N2CCN(C(=O)c3cc(C4CC4)[nH]n3)CC2)n1",
    "value reported": 3.34
  },
  {
    "molecule": "N[C@H]1CN(C(=O)c2ccc(Cl)cc2O)C[C@@H]1C1CC1",
    "value reported": -44.7
  },
  {
    "molecule": "Cc1cccc2cc(CN3CCC(N4CCCC4)CC3)c(=O)[nH]c12",
    "value reported": -3.45
  },
  {
    "molecule": "Cc1nc(C)n(CC2CCCN(CCc3ccncc3)C2)n1 (configuration not stated)",
    "value reported": -23
  },
  {
    "molecule": "CC(=O)Nc1nc(SCc2ccc3c(c2)OCO3)ns1",
    "value reported": -8.98
  },
  {
    "molecule": "CCN(Cc1ccc(-c2ccccn2)cc1)C1CCS(=O)(=O)C1 (configuration not stated)",
    "value reported": -9.25
  },
  {
    "molecule": "CCCn1ncc(C(=O)N2CCCC(OCc3ccccn3)C2)c1C (configuration not stated)",
    "value reported": -0.2
  },
  {
    "molecule": "Cc1ccc(NC(=O)NCC2CCS(=O)(=O)C2)cc1Cl (configuration not stated)",
    "value reported": 6.93
  },
  {
    "molecule": "CCOC(=O)c1cn(CC(O)c2ccccc2OC)nn1 (configuration not stated)",
    "value reported": -4.06
  },
  {
    "molecule": "O=C(Nc1cnn(CC(=O)N2CCCCO2)c1)c1ccccn1",
    "value reported": -0.0294
  },
  {
    "molecule": "CS(=O)(=O)c1ccc(NCc2ccc(F)cc2)cn1",
    "value reported": 8.08
  }
]

Just for reference, ChEMBL document CHEMBL4513216 is where these values come from.
